# procedureSummary: gradient 5% acetonitrile 3 min, to 50% in 2 min, to 85% in 15 min, held 3 min, 100 µL/min
# conditionParameters: column: Zorbax Extend-C18 2.1 x 50 mm; eluents: water / acetonitrile, 0.1% formic acid
Reported RP-LC retention time is given for each of the following compounds.
readoutKind: RP-LC retention time (s)

- COc1ccc(-c2ccc(=O)n(CCCC(=O)Nc3ccccc3C(N)=O)n2)cc1OC: 619
- COc1ccc(CNC(=O)C2(C)CCCN(S(=O)(=O)c3ccccc3Cl)C2)cc1 (stereo not given): 932
- CCn1c(C(=O)NCCCN2CCCC2=O)c(N2CCCC2=O)c2cc(F)ccc21: 700
- O=C(O)c1cc(-c2ccc(F)cc2)nc2ccccc12: 884
- CCCn1cc(CCNC(=O)Nc2cc(C)cc(C)c2)c2cccnc21: 736
- O=C(Nc1nnc(-c2ccc(C(F)(F)F)cc2)o1)C1CC1: 714
- CCCN(CC1CCOC1)C(=O)Nc1cc(F)c(F)c(F)c1 (stereo not given): 844
- O=C(CSc1nccc2c1ccn2Cc1ccc(F)cc1)NCc1ccco1: 1040
- Cc1cc(C(=O)Nc2cccc3ccccc23)n(-c2ccccc2)n1: 908
- O=C(Cn1nc2c(N3CCCCCC3)nccn2c1=O)Nc1cc(F)ccc1F: 731
- CCc1ccc(NC(=O)N2CCC(c3nc(C(=O)N(C)C)c(C)o3)CC2)cc1: 769
- Cc1ccc(CNC(=O)Cn2c(C)nc3onc(C)c3c2=O)cc1: 764
- CCc1cccc(NC(=O)N(C)CC2CCOCC2)c1: 795
- CC(=O)Nc1ccc(-c2noc(C3CCCN(C(=O)c4ccsc4)C3)n2)cc1 (stereo not given): 766
- Cn1c(C(=O)c2ccncc2)cc2ccccc21: 881
- CCOc1cc(-c2noc(-c3nnn4c3COC(c3ccc(F)cc3)C4)n2)ccc1OC (stereo not given): 1130
- Cc1cc(-c2nc(C3CC3)no2)c(C)n1CC(=O)Nc1ccc(Cl)cc1: 1020
- O=C(Cc1ccccc1)Nc1c(C(=O)N2CCN(c3ccccn3)CC2)oc2ccccc12: 673
- Cc1oc(-c2ccc(C(=O)NCCc3ccco3)cc2)nc1CN1CCc2ccccc21: 1050
- COc1ccc(NC(=O)C2CCCN(c3nccnc3Sc3ccccc3)C2)cc1OC (stereo not given): 969

###

# procedureSummary: gradient 5% acetonitrile 3 min, to 50% in 2 min, to 85% in 15 min, held 3 min, 100 µL/min
# conditionParameters: column: Zorbax Extend-C18 2.1 x 50 mm; eluents: water / acetonitrile, 0.1% formic acid
Reported RP-LC retention time by item:
readoutKind: RP-LC retention time (s)

* COc1ccc(-c2c(C(=O)O)nnn2-c2ccc3c(c2)OCO3)cc1 | 745
* CCOc1ccc(N2C=C(C(=O)N3CCCC3)S(=O)(=O)c3ccc(Cl)cc32)cc1 | 930
* CCn1cnc(S(=O)(=O)N2CCC(C(=O)NC3CCCCC3)CC2)c1 | 686
* O=C(COc1ccccc1-c1nnc(-c2ccccc2)o1)Nc1ccc2c(c1)OCCO2 | 1160
* Cc1cccn2c(=O)cc(CN(C)Cc3ccccc3)nc12 | 603
* CCOC(=O)c1cc2ccsc2n1CC(=O)NCc1ccc(C)cc1 | 981
* O=C(NCC1CCCCC1)C1CCN(C(=O)c2ncn3c2COC(c2ccc(F)cc2)C3)CC1 (centres undefined) | 846
* Cc1noc(C)c1-c1ccc(S(=O)(=O)N2CCN(c3ccccc3)CC2)cc1 | 1080
* CCn1nc(N2CCCC(NC(=O)C3(c4ccccc4)CCCC3)C2)ccc1=O (centres undefined) | 792

###

# procedureSummary: gradient 5% acetonitrile 3 min, to 50% in 2 min, to 85% in 15 min, held 3 min, 100 µL/min
# conditionParameters: column: Zorbax Extend-C18 2.1 x 50 mm; eluents: water / acetonitrile, 0.1% formic acid
Consider the following molecules and their measured RP-LC retention time readings.
readoutKind: RP-LC retention time (s)

- COCCN(CC(=O)N1CCc2sccc2C1COc1ccc(Cl)cc1)C(=O)C1CC1 (centres undefined): 931
- O=C(Nc1cccc2ccc(-n3ccnc3)nc12)c1ccc2c(c1)OCO2: 620
- CC(C)(C)c1noc(-c2cccn3c(CC(=O)NC4CCCCC4)nnc23)n1: 754
- Cc1nn(-c2ccccc2)c2c1N(CC(=O)NCCC1=CCCCC1)C(=O)CS2: 811
- O=S(=O)(Cc1ccccc1F)N1CCOc2ccc(N3CCOCC3)cc2C1: 861
- COc1ccc(S(=O)(=O)N2CCCC(C(=O)NC3CCCCCC3)C2)cc1C (centres undefined): 1040
- Cc1oc2ccn(Cc3ccc(F)cc3)c(=O)c2c1C(=O)O: 873
- O=C(Cn1ccn(-c2ccc3c(c2)OCCO3)c(=O)c1=O)Nc1ccccc1F: 655
- O=C(CCC1CCCC1)NCCC1CCN(C(=O)Nc2cc(F)cc(F)c2)CC1: 971

###

# procedureSummary: gradient 5% acetonitrile 3 min, to 50% in 2 min, to 85% in 15 min, held 3 min, 100 µL/min
# conditionParameters: column: Zorbax Extend-C18 2.1 x 50 mm; eluents: water / acetonitrile, 0.1% formic acid
readoutKind: RP-LC retention time (s)

- COc1ccc2[nH]cc(CCN3CC(C(=O)Nc4cc(C)cc(C)c4)CC3=O)c2c1 (centres undefined): 846
- Cc1ccn2cc(-c3ccc(NC(=O)c4cccc(C(F)(F)F)c4)cc3)nc2n1: 716
- CCCn1cc(C(=O)NC(C)c2cccnc2)c2cccnc21 (centres undefined): 597
- CCCC(=O)Nc1ccc(OCc2cc(C(=O)NC(C)CC)no2)cc1 (centres undefined): 819
- COc1ccc(C2(C(=O)N3CCC(Oc4ccccc4-c4nc(C)no4)C3)CC2)cc1 (centres undefined): 880
- CCC(C)NC(=O)Cn1nc(-c2nc(-c3cccc(C)c3)no2)c2ccccc21 (centres undefined): 1170
- O=C(Cn1nc(C(=O)N2CCCC2)c2ccccc21)NC1CCCC1: 758
- Cc1ccc(-n2cc(C(=O)NCc3ccccc3Cl)nn2)cc1: 921
- Cc1cc2nn(CC(=O)Nc3cccc(C(C)C)c3)c(=O)n2c(-c2ccccc2)n1: 955

###

# procedureSummary: gradient 5% acetonitrile 3 min, to 50% in 2 min, to 85% in 15 min, held 3 min, 100 µL/min
# conditionParameters: column: Zorbax Extend-C18 2.1 x 50 mm; eluents: water / acetonitrile, 0.1% formic acid
Measured RP-LC retention time accompanies every entry in the list below.
readoutKind: RP-LC retention time (s)

* O=c1ccc(N2CCC(NS(=O)(=O)c3cccc(F)c3)C2)nn1CC1CC1 (stereo not given) | 773
* O=C(Cn1nc(N2CCCCCC2)c2ccccc2c1=O)Nc1ccc(F)c(F)c1 | 1150
* COc1ccc2nc(NC(=O)CCCN3C(=O)C4C5C=CC(C5)C4C3=O)sc2c1 (stereo not given) | 817
* O=C(NCC1CCN(C(=O)c2cc3ccccc3o2)CC1)c1cc(Cl)ccc1Cl | 841
* COc1cccc(-n2c(N3CCCC(C(=O)Nc4ccc(Cl)cc4)C3)nc3ccsc3c2=O)c1 (stereo not given) | 1020
* CCc1nc2ccccc2c(=O)n1Cc1noc(-c2ccc(F)cc2)n1 | 998
* CCN(C(=O)C1C(=O)NC2(C)CC1c1ccccc1O2)c1ccccc1 (stereo not given) | 820
* CCC(=O)N1CCc2c(sc3ncnc(NCc4ccccn4)c23)C1 | 559
* c1ccc(CN2CCCC(OCc3nc(-c4ccncc4)no3)C2)nc1 (stereo not given) | 577
* Cn1c(C(=O)NCCCN2CCN(C3CCCCC3)CC2)cc2sccc21 | 547

###

# procedureSummary: gradient 5% acetonitrile 3 min, to 50% in 2 min, to 85% in 15 min, held 3 min, 100 µL/min
# conditionParameters: column: Zorbax Extend-C18 2.1 x 50 mm; eluents: water / acetonitrile, 0.1% formic acid
Define the label as true when RP-LC retention time is strictly less than 900 s and as false in all remaining cases.

* CCOc1ccccc1-n1nnc(C(=O)OC)c1C(=O)OC | true
* O=C(c1nnn2c1COC(c1ccccc1)C2)N1CCN(C(=O)c2cccc3[nH]ccc23)CC1 (centres undefined) | true
* CCOC(=O)c1noc2ncnc(Nc3ccccc3OCC)c12 | false
* CCOC(=O)c1c(N2C(=O)C3C4C=CC(O4)C3C2=O)sc2c1CCCC2 (centres undefined) | true
* COc1ccc(S(=O)(=O)N2CCCC(C(=O)NC3CCCC3)C2)cc1OC (centres undefined) | true
* COc1ccc(-c2nc3cnccn3c2Nc2ccc3c(c2)OCCO3)cc1OC | true
* COc1ccc(CN2C=C(C(=O)OCc3noc(-c4ccc(C)c(C)c4)n3)C(C)=NS2(=O)=O)cc1 | false
* O=C(NC1CCCC1)c1c2c(nc3ccccc13)CCCC2 | true
* O=c1c2sccc2n(Cc2nc(-c3ccc(Cl)c(F)c3)no2)c(=O)n1-c1ccc(F)cc1 | false
* O=C(CN1CCN(Cc2ccc(F)cc2)C1=O)N1CCN(c2ccccc2)CC1 | true
* Cc1ccc(-c2noc(CNC(=O)C3CCC(=O)N3S(=O)(=O)c3ccc(C)cc3)n2)cc1 (centres undefined) | false
* Cc1oc2ccn(Cc3ccc(F)cc3)c(=O)c2c1C(=O)NCc1ccc(F)cc1F | false
* CCOC(=O)C1=C(CN(CC)Cc2ccccc2)NC(=O)NC1c1cccs1 (centres undefined) | true
* CCOc1ccc(S(=O)(=O)N2CCCC(C(=O)NCCO)C2)cc1 (centres undefined) | true
* CCCCOc1ccc(NC(N)=Nc2ccc(Cl)cc2)cc1 | true
* O=C(Cn1nc2nc(Nc3ccc(F)cc3)ccn2c1=O)NCC1CCCO1 (centres undefined) | true
* Cc1ccc(-c2noc(C3CC(=O)N(c4ccc(C)c(F)c4)C3)n2)cc1 (centres undefined) | false
* CCc1nnc2nc(N3CCN(C(=O)c4cccs4)CC3)cc(C)n12 | true
* COCCc1noc(CC2CCOC3(CCN(C(=O)NC(C)(C)C)CC3)C2)n1 (centres undefined) | true
* CCOC(=O)Cn1c(C2CC(=O)N(c3cccc(SC)c3)C2)nc2ccccc21 (centres undefined) | true
* CC(C)CCNC(=O)c1ccc2ncnc(N3CCCC3)c2c1 | true
* CCC(=O)N(C)CCc1noc(-c2ccc(C(=O)NCCOC)cc2)n1 | true
* CN(CCCNC(=O)c1ccc2c(c1)NC(=O)C1CCCCN21)Cc1ccccc1 (centres undefined) | true
* COc1ccc(CN2CCC([C@@H]3CNC[C@H]3CO)CC2)c(Cl)c1OC | true
* O=C(Cn1cccc1-c1nnc(C2CCC2)o1)NCCc1ccc(Cl)cc1 | true
* O=c1n(Cc2cccc(C(F)(F)F)c2)nc2c(S(=O)(=O)N3CCc4ccccc4C3)cccn12 | false
* COCc1noc([C@@H]2CC(F)(F)CN2C(=O)c2coc(C)n2)n1 | true
* Cc1nnc2c(=O)n(CC(=O)NCc3ccccc3F)c3cccnc3n12 | true
* CCN(C(=O)c1cc2c(s1)N(CC1CC1)CCCC2)C(C)C | false
* COc1ccc(-c2cn3cccnc3n2)cc1NC(=O)c1ccc(OC)c(OC)c1 | true
* Cc1ccc(CNC(=O)N2CCN(c3ncccc3-c3nnc(C4CC4)o3)CC2)cc1 | true
* N#Cc1cnc2ccccc2c1N1CCC(C(=O)N2CCc3ccccc3C2)CC1 | true
* CCn1nccc1C(=O)N1CCCC1c1ccc(OC)cc1 (centres undefined) | true
* Cc1ccc(-c2noc(CCN3CCN(C)CC3)n2)cc1 | true
* COc1cccc(NC(=O)C2CCCN(c3ncnc4c3nc3n4CCCCC3)C2)c1 (centres undefined) | true
* Cc1ccc(-c2noc(Cn3ccnc3C)n2)cc1 | true
